Entry source: BindingDB's records for doi:10.1021/np0302302

assayed_target: UniProt P0ABS5
Sequence (P0ABS5 whole entry, looked up): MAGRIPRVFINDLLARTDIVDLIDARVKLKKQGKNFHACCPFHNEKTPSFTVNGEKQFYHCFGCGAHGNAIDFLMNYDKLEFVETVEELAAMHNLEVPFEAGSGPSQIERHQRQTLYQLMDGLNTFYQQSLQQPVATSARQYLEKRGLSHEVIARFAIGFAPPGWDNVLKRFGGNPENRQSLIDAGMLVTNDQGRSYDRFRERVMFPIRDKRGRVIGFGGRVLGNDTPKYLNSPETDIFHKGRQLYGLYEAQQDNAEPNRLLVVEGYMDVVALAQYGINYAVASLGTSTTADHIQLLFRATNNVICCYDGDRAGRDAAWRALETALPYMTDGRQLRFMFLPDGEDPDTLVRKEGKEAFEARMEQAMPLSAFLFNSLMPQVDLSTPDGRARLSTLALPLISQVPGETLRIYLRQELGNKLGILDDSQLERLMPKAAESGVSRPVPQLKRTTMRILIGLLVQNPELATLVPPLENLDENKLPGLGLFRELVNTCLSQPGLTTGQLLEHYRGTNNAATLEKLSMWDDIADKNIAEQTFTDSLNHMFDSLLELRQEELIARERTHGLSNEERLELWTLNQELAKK
measurement_notes: Inhibition of Escherichia coli DNA primase after 1 hr by [3H]rNTPs incorporation assay
value_kind: EC50 (µM)
State just the number; it will be interpreted in µM.

q: Data request, read-out EC50, for `C[C@H]1CCCC[C@H]2C(=O)C=C[C@H](O)[C@@H]2CC(=O)O1`
a: 70
